EC50 by entry:
Tested on: Sclerotinia sclerotiorum
Measurement Protocol: Antifungal activity against Sclerotinia sclerotiorum
Format: functional, organism-based
Write the value in µg/mL as a bare number.

Here's what some known entries look like.
>>> observed("CCCSc1ncnc2ccc(F)cc12")
17.1
>>> observed("Cc1cc(O)no1")
5.1
>>> observed("CCSc1ncnc2ccc(F)cc12")
11.4

Moving on to another compound below.
Task: For Sclerotinia sclerotiorum, provide EC50 of `C=CCSc1ncnc2ccc(F)cc12` please.
Result: 35.2

----------
Tested on: Botrytis cinerea
Measurement Protocol: Antifungal activity against Botrytis cinerea
Assay type: functional, organism-based
Readout Name: EC50 (µg/mL)
Write the value in µg/mL as a bare number.

Here's what some known entries look like.
>>> observed("Cc1cc(O)no1")
4.6
>>> observed("CCCSc1ncnc2ccc(F)cc12")
13
>>> observed("CCSc1ncnc2ccc(F)cc12")
8.3

Task: Would you mind telling me what EC50 value was observed for `C=CCSc1ncnc2ccc(F)cc12` ?
Result: 42.4

----------
System: Fusarium oxysporum
Measurement Protocol: Antifungal activity against Fusarium oxysporum at 500 ug/mL
Type: functional
inhibition at 500 µg/mL by entry:
Write the value in % as a bare number.

>>> observed("Cc1cc(O)no1")
91.3
>>> observed("C=CCSc1ncnc2ccc(F)cc12")
92.3
>>> observed("COc1ccc(C(=O)CSc2ncnc3ccc(F)cc23)c(OC)c1OC")
5.3
>>> observed("Fc1ccc2ncnc(SCc3ccc(Cl)nc3)c2c1")
21.9

Task: For Fusarium oxysporum, provide inhibition at 500 µg/mL of `CCOC(=O)CSc1ncnc2ccc(F)cc12` please.
Result: 20.3

Task: For Fusarium oxysporum, provide inhibition at 500 µg/mL of `CCSc1ncnc2ccc(F)cc12` please.
Result: 98.5

Task: For Fusarium oxysporum, provide inhibition at 500 µg/mL of `Fc1ccc2ncnc(SCc3ccccc3)c2c1` please.
Result: 18.9

Task: For Fusarium oxysporum, provide inhibition at 500 µg/mL of `CCCSc1ncnc2ccc(F)cc12` please.
Result: 89.3

Task: For Fusarium oxysporum, provide inhibition at 500 µg/mL of `Fc1ccc2ncnc(SCc3ccc(Cl)cc3)c2c1` please.
Result: 5.9
